- target.desc: PLK2 (Homo sapiens, UniProt Q9NYY3)
- Sequence (Q9NYY3 whole entry): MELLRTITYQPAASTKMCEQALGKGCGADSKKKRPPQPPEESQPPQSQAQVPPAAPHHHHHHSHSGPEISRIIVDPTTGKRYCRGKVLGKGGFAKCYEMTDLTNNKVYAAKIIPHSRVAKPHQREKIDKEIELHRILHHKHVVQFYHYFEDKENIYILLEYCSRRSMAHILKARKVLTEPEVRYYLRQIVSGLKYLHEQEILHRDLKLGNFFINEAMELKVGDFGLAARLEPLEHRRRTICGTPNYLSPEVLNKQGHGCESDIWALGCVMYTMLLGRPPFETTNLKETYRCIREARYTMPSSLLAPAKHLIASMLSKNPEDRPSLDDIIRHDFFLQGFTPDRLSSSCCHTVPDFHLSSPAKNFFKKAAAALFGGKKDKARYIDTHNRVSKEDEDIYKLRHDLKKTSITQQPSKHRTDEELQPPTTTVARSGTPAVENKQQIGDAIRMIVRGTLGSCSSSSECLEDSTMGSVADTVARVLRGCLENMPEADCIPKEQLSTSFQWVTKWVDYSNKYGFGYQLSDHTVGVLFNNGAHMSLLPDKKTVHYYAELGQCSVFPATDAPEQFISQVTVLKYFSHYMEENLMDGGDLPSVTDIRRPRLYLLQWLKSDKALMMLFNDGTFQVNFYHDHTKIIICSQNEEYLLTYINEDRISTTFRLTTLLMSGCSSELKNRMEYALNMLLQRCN
- method: PLK TR-FRET peptide assay, PLK2
- Format: biochemical
- condition.notes: PLK TR-FRET peptide assay, GST-PLK2, 60 min reaction; read-out: Plk2 IC50
pIC50: −log10 of the molar value.
outcome.measure: pIC50

{"test.smiles": "[2H]C([2H])([2H])N1C(=O)[C@H](C([2H])([2H])C([2H])([2H])[2H])N(C([2H])(C([2H])([2H])[2H])C([2H])([2H])[2H])c2nc(-n3ccnc3-c3cccc(F)c3)ncc21", "readout.value": "5.00 to 6.00"}
{"test.smiles": "CC[C@@]12CCCN1c1nc(N3CCN=C3c3ccccc3)ncc1N(C)C2=O", "readout.value": "> 6.00"}

Query: Requested read-out pIC50, target or system PLK2 (Homo sapiens, UniProt Q9NYY3), entry CC[C@@H]1C(=O)N(C)c2cnc(-n3ccnc3-c3cccc(F)c3)nc2N1C1CC(F)(F)C1
Result: > 6.00

Query: Consider next the compound CC[C@@H]1C(=O)N(C)c2cnc(-c3ccncc3CNC(=O)OC(C)(C)C)nc2N1C(C)C in the same way.
Result: < 4.30

Query: Also CC[C@@H]1C(=O)N(C)c2cnc(-c3cncnc3-c3nccs3)nc2N1C(C)C ?
Result: 5.00 to 6.00

Query: Similarly, CC[C@@H]1C(=O)N(C)c2cnc(-c3ccncc3CN)nc2N1C(C)C ?
Result: 4.30 to 5.00

Query: Please do the same for CC[C@@H]1C(=O)N(C)c2cnc(-n3ccnc3N3CCOCC3)nc2N1C1CCCC1 as well.
Result: 5.00 to 6.00

Query: Also, CC[C@@]12CCCN1c1nc(-n3ncnc3-c3cccc4ncccc34)ncc1N(C)C2=O please.
Result: 5.00 to 6.00
